Kindly supply the reported protein stability index values for the records listed here.
B1: KCNK9 (parent)
chain: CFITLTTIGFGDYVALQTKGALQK

variants of: B1; assay: protein stability index of a GFP-peptide fusion (GPS, HEK-293T) (PSI 1-6); higher = more stable; conditions: c terminus: a fixed tail appended;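 further: lentivirally expressed fusions sorted by FACS into six bins by GFP to DsRed ratio, PSI derived from sequencing read proportions per bin multiplied by bin number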
One number for each entry.

Query block: Please give the measured protein stability index for this variant: `T7I`
Result block: 3.49

Value sought for every listed variant: protein stability index.
1. F10M
2. C1S
3. V14H
4. T18Y
5. Q23C
6. I3N
7. C1R
8. Q23P

Result block:
[2.62, 2.4, 2.99, 3.26, 2.6, 1.86, 2.57, 2.14]
